test.target: Voltage-gated N-type calcium channel alpha-1B subunit/Amyloid beta A4 precursor protein-binding family A member 1 (Homo sapiens, UniProt Q00975+Q02410)
Format: protein assay
Active and inactive are the calls of the source.
As shown below, each of these molecules has a reported IC50 value.
readout.name: IC50

| molecule | observed.measurement |
| --- | --- |
| Cc1c(C(=O)OCC2CCCO2)[nH]c2c1C(=O)CC(c1ccco1)C2 (stereo not given) | 21.9 µM (active) |
| O=C(N/N=C/c1coc2ccccc2c1=O)c1cc(O)cc(O)c1 | 7.54 µM (active) |
| O=C1NC(=O)C(=Cc2ccc(-c3cc(Cl)ccc3[N+](=O)[O-])o2)C(=O)N1 | 4.58 µM (active) |
| O=C(O)CCn1cc(C=C2C(=O)NC(=S)NC2=O)c(-c2cc3ccccc3oc2=O)n1 | 17.8 µM (active) |
| Nc1ccc2nc(-c3ccc(-c4nc5ccc(N)cc5[nH]4)cc3)[nH]c2c1 | 5.62 µM (active) |

---

experiment: microbe, parasite or virus in culture
Assay type: functional
condition.label: Mycobacterium tuberculosis
Calls of active or inactive are those of the source.

| test.smiles | CC50 |
| --- | --- |
| CCOC(=O)CN=C(S)n1cnc(N)n1 | > 40 µM (active) |
| N#C/C(N=Nc1ccccc1O)=N\Nc1ccccc1O | 4.13 µM (active) |
| Cc1ccc(N(CCC#N)C(=O)CCl)cc1C | 1.84 µM (active) |
| O=C(Nc1ccc(OCC(F)(F)C(F)F)c(C(F)(F)F)c1)c1ccc(Cl)cc1 | 13.4 µM (active) |
| Cc1cc(NC(=O)c2cc(-c3ccncc3)nc3c(C)cccc23)no1 | 9.08 µM (active) |
| Nc1ccc(-c2nc3cc(-c4nc5ccccc5o4)ccc3[nH]2)cc1 | > 40 µM (active) |
| NC(=O)N=Nc1c2nc3ccccc3[nH]c-2c2ccccc12 | 7.97 µM (active) |

---

# AC50 per record follows
test.target: Voltage-gated inwardly rectifying potassium channel KCNH2 (Homo sapiens, UniProt Q12809);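 note: confirmatory quantitative high-throughput screen measuring inhibition of hERG channel activity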
Sequence (Q12809 whole entry): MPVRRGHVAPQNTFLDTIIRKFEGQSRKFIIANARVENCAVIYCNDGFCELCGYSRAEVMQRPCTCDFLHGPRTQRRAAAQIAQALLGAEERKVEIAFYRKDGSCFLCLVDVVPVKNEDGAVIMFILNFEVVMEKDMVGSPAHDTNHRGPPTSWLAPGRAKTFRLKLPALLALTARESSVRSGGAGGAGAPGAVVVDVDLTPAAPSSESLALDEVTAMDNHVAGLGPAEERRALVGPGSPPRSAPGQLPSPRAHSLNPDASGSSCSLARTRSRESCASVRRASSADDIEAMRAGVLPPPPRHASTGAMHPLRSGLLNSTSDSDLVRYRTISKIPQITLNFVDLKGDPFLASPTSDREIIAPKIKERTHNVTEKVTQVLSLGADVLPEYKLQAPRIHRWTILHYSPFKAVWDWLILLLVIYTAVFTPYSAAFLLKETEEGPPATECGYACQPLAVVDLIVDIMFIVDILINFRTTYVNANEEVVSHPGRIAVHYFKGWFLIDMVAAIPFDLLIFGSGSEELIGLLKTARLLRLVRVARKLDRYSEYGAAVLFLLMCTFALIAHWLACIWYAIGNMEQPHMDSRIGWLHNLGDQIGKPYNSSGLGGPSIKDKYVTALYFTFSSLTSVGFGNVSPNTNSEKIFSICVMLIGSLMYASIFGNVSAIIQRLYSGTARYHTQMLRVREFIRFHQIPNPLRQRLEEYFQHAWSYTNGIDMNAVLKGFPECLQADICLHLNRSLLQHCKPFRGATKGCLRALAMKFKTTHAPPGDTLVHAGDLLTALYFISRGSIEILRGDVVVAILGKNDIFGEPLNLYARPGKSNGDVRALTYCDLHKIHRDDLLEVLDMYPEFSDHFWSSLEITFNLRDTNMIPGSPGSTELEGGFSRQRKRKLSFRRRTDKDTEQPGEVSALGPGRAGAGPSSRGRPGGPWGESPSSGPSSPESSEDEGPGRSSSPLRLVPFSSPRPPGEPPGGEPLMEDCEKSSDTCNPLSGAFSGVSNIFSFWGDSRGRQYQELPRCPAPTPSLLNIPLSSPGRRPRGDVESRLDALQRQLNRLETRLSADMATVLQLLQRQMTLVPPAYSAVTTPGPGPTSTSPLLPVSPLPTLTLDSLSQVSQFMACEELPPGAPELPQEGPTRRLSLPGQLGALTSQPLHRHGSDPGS
condition.label: Potency
readout.name: AC50

| compound | test.target | observed.measurement |
| --- | --- | --- |
| O=C(N[C@@H](Cc1ccccc1)C(=O)CCl)OCc1ccccc1 | Voltage-gated inwardly rectifying potassium channel KCNH2 (Homo sapiens, UniProt Q12809) | 25.1 µM (inconclusive) |
| CCCN(CCC)[C@@H]1CCc2cccc(O)c2C1 | Voltage-gated inwardly rectifying potassium channel KCNH2 (Homo sapiens, UniProt Q12809) | 15.8 µM (inconclusive) |
| ClC(Cl)(Cl)C(Cl)(Cl)Cl | Voltage-gated inwardly rectifying potassium channel KCNH2 (Homo sapiens, UniProt Q12809) | 39.8 µM (inconclusive) |
| O=C(O)C1C2CCC(O2)C1C(=O)O (stereo unspecified) | Voltage-gated inwardly rectifying potassium channel KCNH2 (Homo sapiens, UniProt Q12809) | 1.26 µM (inconclusive) |
| CC(C)(C)c1ccc(OCC2CO2)cc1 (stereo unspecified) | Voltage-gated inwardly rectifying potassium channel KCNH2 (Homo sapiens, UniProt Q12809) | 12.6 µM (inconclusive) |
| CCCCOCCOP(=O)(OCCOCCCC)OCCOCCCC | Voltage-gated inwardly rectifying potassium channel KCNH2 (Homo sapiens, UniProt Q12809) | 50.1 µM (inconclusive) |

---

Readings of IC50 for the listed compounds
test.target: Fatty acid synthase (Homo sapiens, UniProt P49327)
Sequence (P49327 whole entry): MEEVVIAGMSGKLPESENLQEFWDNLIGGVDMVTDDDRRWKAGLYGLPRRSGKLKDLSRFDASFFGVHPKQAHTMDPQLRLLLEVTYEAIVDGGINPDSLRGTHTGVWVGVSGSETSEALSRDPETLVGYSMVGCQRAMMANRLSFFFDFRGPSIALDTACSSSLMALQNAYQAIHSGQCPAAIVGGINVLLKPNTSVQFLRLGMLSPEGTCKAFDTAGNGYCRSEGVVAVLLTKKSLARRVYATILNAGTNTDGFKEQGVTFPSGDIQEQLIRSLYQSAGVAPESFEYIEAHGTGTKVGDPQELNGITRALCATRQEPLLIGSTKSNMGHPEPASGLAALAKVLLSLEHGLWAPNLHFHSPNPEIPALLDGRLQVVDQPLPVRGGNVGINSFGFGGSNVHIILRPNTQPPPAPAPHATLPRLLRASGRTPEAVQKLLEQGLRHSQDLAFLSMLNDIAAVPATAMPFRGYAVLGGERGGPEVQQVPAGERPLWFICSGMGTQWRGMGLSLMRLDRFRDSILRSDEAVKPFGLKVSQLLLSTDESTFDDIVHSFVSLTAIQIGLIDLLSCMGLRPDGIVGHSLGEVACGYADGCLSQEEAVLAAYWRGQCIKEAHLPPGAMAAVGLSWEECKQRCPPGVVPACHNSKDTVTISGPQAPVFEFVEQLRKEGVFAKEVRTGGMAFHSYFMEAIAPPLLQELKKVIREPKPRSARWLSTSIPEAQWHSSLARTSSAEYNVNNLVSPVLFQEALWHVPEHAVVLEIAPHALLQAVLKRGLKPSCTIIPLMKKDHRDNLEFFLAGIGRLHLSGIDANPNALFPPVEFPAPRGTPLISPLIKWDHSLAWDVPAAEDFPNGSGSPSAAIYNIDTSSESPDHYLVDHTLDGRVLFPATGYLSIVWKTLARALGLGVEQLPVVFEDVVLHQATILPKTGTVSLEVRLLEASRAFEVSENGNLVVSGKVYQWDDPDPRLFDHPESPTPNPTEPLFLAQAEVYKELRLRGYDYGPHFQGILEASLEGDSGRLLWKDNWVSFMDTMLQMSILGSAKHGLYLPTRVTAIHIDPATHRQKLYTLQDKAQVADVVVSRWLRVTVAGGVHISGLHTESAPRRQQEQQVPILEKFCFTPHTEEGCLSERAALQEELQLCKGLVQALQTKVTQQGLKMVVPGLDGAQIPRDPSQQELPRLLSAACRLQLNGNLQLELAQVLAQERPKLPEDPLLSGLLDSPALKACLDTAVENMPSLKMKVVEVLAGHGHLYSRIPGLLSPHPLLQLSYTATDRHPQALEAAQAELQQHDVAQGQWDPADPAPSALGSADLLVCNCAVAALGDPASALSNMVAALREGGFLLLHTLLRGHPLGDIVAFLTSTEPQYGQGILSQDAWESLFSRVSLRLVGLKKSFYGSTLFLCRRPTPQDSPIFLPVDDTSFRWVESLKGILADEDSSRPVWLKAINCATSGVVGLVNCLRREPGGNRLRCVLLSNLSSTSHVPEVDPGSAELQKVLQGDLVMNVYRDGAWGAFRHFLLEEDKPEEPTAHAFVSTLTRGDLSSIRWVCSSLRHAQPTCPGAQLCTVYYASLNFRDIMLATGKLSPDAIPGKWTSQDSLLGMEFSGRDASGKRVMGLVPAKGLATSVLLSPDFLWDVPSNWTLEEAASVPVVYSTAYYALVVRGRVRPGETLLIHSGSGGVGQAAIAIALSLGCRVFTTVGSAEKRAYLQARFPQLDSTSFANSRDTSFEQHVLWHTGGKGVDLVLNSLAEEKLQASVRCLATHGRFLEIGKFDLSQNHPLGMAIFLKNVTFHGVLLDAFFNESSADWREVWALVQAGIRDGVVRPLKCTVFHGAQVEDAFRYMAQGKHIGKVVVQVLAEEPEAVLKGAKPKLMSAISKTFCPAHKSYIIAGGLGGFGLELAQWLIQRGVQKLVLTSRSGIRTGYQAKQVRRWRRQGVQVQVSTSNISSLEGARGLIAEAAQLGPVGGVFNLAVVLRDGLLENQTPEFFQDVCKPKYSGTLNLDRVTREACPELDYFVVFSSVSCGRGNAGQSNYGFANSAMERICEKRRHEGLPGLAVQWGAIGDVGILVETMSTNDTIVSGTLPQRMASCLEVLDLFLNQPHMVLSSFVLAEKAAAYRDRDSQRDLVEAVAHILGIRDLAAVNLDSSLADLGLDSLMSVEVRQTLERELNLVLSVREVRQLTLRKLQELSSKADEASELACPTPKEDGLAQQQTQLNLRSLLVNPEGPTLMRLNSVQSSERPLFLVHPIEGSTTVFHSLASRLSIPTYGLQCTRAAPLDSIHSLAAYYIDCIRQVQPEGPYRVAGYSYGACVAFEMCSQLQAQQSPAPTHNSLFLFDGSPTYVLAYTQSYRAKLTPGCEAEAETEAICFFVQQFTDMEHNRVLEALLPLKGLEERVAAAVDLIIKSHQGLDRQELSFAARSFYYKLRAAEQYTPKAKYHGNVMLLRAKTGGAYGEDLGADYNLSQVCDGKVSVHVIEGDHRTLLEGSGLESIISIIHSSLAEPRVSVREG
experiment: inhibition of human FAS-TE enzyme activity – biochemical, endpoint fluorescence intensity, uHTS hits, dose response (AID 624327);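 note: fluorescence from hydrolysis of an O-methyl fluorescein acyl ester substrate by the enzyme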
Assay type: functional
Activity calls are given as the source filed them.
readout.name: IC50

| compound | readout.name | observed.measurement |
| --- | --- | --- |
| COc1ccc(CN(C)C(=O)COC(=O)c2cc([N+](=O)[O-])ccc2N2CCCC2)c(OC)c1OC | IC50 | 5.42 µM (active) |
| CN(c1ccccc1)S(=O)(=O)c1cccc(NC(=O)CCNC(=O)c2ccc([N+](=O)[O-])cc2)c1 | IC50 | 7.63 µM (active) |
| CC1CCN(C(=O)COC(=O)c2cc([N+](=O)[O-])ccc2N2CCOCC2)CC1 | IC50 | 3.58 µM (active) |
| C/C=C/C=N/NC(=O)CN(c1ccc(Br)cc1)S(=O)(=O)c1ccccc1 | IC50 | 10.6 µM (active) |
| COC(=O)c1cc(C(=O)NCc2ccc3c(c2)OCO3)cc([N+](=O)[O-])c1 | IC50 | 11.1 µM (active) |
| CC(NC(=O)C(C(=O)c1cccc([N+](=O)[O-])c1)n1cc(Cl)ccc1=O)c1ccccc1 (stereo unspecified) | IC50 | 8.63 µM (active) |

---

Record set of IC50 for target or system Glyceraldehyde-3-phosphate dehydrogenase (Homo sapiens).
The source made the active and inactive calls.

| molecule | IC50 |
| --- | --- |
| COc1ccc(Cc2nc3c4cnn(C)c4ncn3n2)cc1 | > 100 µM (not active) |
| O=C1C(Cl)=C(Cl)C(=O)N1c1ccnc(Cl)c1 | > 100 µM (not active) |
| COc1ccc(NS(=O)(=O)c2ccc(OC)c(OC)c2)cn1 | > 100 µM (not active) |
| O=C1c2ccccc2C(=O)C1c1nc2ccccc2[nH]1 | > 100 µM (not active) |
| COc1ccc(OC)c(NS(=O)(=O)c2cnc3ccccc3c2)c1 | > 10 µM (inconclusive) |
| Clc1ccccc1CSc1nnc(-c2ccco2)c(-c2ccco2)n1 | > 100 µM (not active) |
| O=C(O)C1Nc2ccc([N+](=O)[O-])cc2C2C=CCC12 (stereo not given) | 97.4 µM (active) |
| O=C1C2CC=C(Cl)CC2C(=O)N1c1nnc[nH]1 (stereo not given) | > 100 µM (not active) |
| COc1ccc(OC)c(S(=O)(=O)Nc2cnc3ccccc3c2)c1 | > 100 µM (not active) |
| COc1ccc(F)cc1S(=O)(=O)Nc1cnc2ccccc2c1 | > 10 µM (inconclusive) |
| Cn1ccnc1Sc1nc(Nc2ccccc2)nc(Nc2ccccc2)n1 | > 100 µM (not active) |
| O=C(O)C1Nc2c(cccc2S(=O)(=O)c2ccccc2)C2C=CCC12 (stereo not given) | 56.4 µM (active) |
| CC1CN(C2=C(Cl)C(=O)N(c3ccc(Cl)c(Cl)c3)C2=O)CCN1 (stereo not given) | > 100 µM (not active) |
| CC(C)(C)c1ccc(S(=O)(=O)Nc2cnc3ccccc3c2)cc1 | > 100 µM (not active) |
| Cc1cccc(N2C(=O)C(Cl)=C(N3CCN(Cc4ccc5c(c4)OCO5)CC3)C2=O)c1 | > 50 µM (inconclusive) |
| O=C(O)c1cc(S(=O)(=O)Nc2cccc(Cl)c2)ccc1O | > 100 µM (not active) |
| Cc1cc(O)c2c(c1)C1C=CCC1C(C(=O)O)N2 (stereo not given) | > 100 µM (not active) |
| NS(=O)(=O)c1ccc(NS(=O)(=O)c2ccc(O)c(C(=O)O)c2)cc1 | > 100 µM (not active) |
| O=C1C(Cl)=C(N2CCN(CCOCCO)CC2)C(=O)N1c1ccc(Cl)nc1 | > 50 µM (inconclusive) |
| CC(C)c1ccc(-c2cc(C(=O)O)[nH]n2)cc1 | > 100 µM (not active) |

---

test.target: Intestinal-type alkaline phosphatase (Mus musculus, UniProt P24822)
Sequence (P24822 whole entry): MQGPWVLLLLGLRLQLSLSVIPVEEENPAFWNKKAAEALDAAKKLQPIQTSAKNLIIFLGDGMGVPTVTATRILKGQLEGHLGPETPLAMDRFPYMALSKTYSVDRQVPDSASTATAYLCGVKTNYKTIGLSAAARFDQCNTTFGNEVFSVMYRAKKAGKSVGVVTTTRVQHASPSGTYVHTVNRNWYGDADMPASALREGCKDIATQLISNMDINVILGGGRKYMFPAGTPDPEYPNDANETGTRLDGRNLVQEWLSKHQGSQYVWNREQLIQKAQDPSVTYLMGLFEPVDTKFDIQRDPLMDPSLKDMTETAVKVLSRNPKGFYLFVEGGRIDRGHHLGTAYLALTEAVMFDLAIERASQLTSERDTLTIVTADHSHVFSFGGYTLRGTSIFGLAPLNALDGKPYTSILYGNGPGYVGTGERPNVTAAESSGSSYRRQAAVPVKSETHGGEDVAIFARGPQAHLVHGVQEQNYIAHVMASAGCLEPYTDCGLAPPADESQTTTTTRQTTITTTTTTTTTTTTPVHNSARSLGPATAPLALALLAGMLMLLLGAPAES
experiment: PubChem AID 488785
Type: functional
Active and inactive are the calls of the source.
Here the recorded IC50 is given for each entry.

| compound | test.target | IC50 |
| --- | --- | --- |
| O=[N+]([O-])c1c(O)nc(/C=C\c2ccc(O)c(O)c2)nc1O | Intestinal-type alkaline phosphatase (Mus musculus, UniProt P24822) | 1.04 µM (active) |
| N#Cc1c(SCC(=O)Nc2nncs2)sc2c(O)cc(=O)[nH]c12 | Intestinal-type alkaline phosphatase (Mus musculus, UniProt P24822) | 2.3 µM (active) |
| O=C(N/N=C/c1ccc([N+](=O)[O-])o1)c1sc2ccccc2c1Cl | Intestinal-type alkaline phosphatase (Mus musculus, UniProt P24822) | 7.89 µM (active) |
| COc1ccc(C2CC(c3ccccc3Cl)=NN2c2ccc(S(N)(=O)=O)cc2)cc1 (stereo unspecified) | Intestinal-type alkaline phosphatase (Mus musculus, UniProt P24822) | 6.02 µM (active) |
| CCN(C(=O)C(C)N1C(=O)/C(=C/c2ccco2)SC1=S)C1CCS(=O)(=O)C1 (stereo unspecified) | Intestinal-type alkaline phosphatase (Mus musculus, UniProt P24822) | 0.419 µM (active) |
| Cc1ccc(Cl)c2c(C3=NC(=S)NC3=O)c(O)[nH]c12 | Intestinal-type alkaline phosphatase (Mus musculus, UniProt P24822) | 0.206 µM (active) |

---

test.target: ATP-dependent molecular chaperone HSP82 (Candida albicans (strain WO-1) (Yeast), UniProt C4YTQ8)
Sequence (C4YTQ8 whole entry): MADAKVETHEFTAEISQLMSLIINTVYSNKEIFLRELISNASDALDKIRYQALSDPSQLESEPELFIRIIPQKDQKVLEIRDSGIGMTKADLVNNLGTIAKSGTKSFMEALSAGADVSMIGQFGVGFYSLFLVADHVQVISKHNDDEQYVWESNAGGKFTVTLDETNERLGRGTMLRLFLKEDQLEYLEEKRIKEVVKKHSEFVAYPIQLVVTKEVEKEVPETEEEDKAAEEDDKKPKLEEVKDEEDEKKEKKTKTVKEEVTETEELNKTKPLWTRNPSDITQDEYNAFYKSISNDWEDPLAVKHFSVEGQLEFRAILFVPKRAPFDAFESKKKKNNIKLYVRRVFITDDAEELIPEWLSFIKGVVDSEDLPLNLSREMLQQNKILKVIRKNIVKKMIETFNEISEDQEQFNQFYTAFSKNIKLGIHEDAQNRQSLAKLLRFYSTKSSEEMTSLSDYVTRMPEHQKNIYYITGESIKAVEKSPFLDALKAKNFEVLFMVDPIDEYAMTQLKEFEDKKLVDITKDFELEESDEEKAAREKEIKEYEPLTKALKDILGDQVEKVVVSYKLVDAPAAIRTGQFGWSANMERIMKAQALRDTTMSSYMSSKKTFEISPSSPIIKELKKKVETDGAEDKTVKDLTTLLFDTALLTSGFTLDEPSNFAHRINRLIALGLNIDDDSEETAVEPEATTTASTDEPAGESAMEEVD
experiment: steroid-induced GRE reporter decrease in yeast – S. cerevisiae, luminescence, Hsp90 inhibitor project, dose response (AID 2400);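 note: beta-galactosidase luminescence from glucocorticoid response element reporter as proxy for Hsp90 function; inhibitor potency where signal loss means Hsp90 inhibition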
Format: functional, cell-based
Calls of active or inactive are those of the source.
Outcome codes: active, inactive

| test.smiles | category |
| --- | --- |
| Oc1c(CN2CCN(c3ccc(F)cc3)CC2)cc(Cl)c2cccnc12 | inactive |
| CCCCCCCNC(=O)COc1ccc2c(c1)C(=O)CC(C)(C)O2 | inactive |
| O=c1c2ccc(Cl)cc2nc(-c2ccc([N+](=O)[O-])cc2)n1O | active |
| CCOc1ccc(-c2ccc(NS(=O)(=O)c3ccc([N+](=O)[O-])cc3)cc2)nn1 | inactive |
| Cc1cc(Br)ccc1OCC(=O)NNC(=O)C(=O)Nc1ccccc1 | inactive |
